experiment: Cmax in C57BL/6J mouse at 20 mg/kg, ip after 6 to 24 hrs; type: ADME, organism-based; set-up: dose 20 mg/kg, route intraperitoneal; settings: in vivo
Readout: Cmax

query: So what does the record say about Cmax for O=C(OC[C@H]1O[C@@H](OC(=O)c2cc(O)c(O)c(O)c2)[C@H](OC(=O)c2cc(O)c(O)c(O)c2)[C@@H](OC(=O)c2cc(O)c(O)c(O)c2)[C@@H]1OC(=O)c1cc(O)c(O)c(O)c1)c1cc(O)c(O)c(O)c1 [PENTAGALLOYL GLUCOSE] ?
result: < 1000 nM
